# TEST_NAME: Plasma concentration in mouse at 10 mg/kg, po after 1 hr
# Type: ADME, organism-based
MEASURE_NAME: concentration at 1 h (ng/mL)

[
  {
    "LINE_NOTATION": "O=C(Nc1cccc(OC(F)(F)F)c1)c1c(O)n(-c2ccccc2)c(=S)n(-c2ccccc2)c1=O",
    "UNITS_LABEL": "ng/mL",
    "EXPERIMENTAL_RESULT": 400
  }
]

---

# TEST_NAME: Plasma concentration in mouse at 10 mg/kg, po after 6 hrs
# Format: ADME, organism-based

[
  {
    "LINE_NOTATION": "O=C(Nc1cccc(OC(F)(F)F)c1)c1c(O)n(-c2ccccc2)c(=S)n(-c2ccccc2)c1=O",
    "UNITS_LABEL": "ng/mL",
    "concentration at 6 h": 400
  }
]
